Biological target: xanthine oxidase (XO) (Bos taurus, UniProt P80457)
Construct: gene XDH
Sequence (P80457 2-1332): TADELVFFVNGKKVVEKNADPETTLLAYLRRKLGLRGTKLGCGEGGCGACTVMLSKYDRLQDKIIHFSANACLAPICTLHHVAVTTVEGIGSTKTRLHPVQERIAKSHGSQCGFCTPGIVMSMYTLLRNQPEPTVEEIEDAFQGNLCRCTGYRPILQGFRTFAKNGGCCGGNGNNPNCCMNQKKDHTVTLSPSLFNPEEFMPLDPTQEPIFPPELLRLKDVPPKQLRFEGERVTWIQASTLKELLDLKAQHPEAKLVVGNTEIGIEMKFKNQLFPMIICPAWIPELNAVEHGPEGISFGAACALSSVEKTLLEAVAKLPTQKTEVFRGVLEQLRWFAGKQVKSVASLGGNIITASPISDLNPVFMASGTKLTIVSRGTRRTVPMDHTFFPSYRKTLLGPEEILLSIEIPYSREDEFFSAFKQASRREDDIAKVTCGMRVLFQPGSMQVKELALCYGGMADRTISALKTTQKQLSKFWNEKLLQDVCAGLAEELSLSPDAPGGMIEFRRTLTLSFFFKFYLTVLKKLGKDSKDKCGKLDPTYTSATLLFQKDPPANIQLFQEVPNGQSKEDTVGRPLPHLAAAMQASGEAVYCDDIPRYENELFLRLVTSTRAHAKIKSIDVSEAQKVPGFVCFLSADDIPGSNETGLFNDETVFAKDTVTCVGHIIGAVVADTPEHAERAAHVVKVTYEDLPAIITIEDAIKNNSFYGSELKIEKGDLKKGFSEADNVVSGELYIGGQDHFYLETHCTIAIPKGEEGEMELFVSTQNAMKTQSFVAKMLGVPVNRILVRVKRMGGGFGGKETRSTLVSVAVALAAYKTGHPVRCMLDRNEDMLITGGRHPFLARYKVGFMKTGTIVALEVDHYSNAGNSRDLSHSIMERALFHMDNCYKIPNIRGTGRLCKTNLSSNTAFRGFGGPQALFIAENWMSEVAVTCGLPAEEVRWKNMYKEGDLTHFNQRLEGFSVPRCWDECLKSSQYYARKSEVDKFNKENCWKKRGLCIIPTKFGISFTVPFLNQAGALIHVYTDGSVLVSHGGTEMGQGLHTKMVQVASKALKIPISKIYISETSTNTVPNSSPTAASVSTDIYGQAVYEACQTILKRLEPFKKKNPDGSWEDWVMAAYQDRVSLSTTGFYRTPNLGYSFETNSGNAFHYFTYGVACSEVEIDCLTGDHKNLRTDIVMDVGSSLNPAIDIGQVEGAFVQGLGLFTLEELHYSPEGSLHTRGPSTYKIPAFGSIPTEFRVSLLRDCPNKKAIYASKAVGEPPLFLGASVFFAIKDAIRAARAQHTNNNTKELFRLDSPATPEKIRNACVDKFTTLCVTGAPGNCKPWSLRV
Assay: spectrophotometric xanthine oxidase assay, uric acid formation at […] nm (XO from Roche)
Assay type: biochemical
attributeMeasured: IC50 (µM)
Write the answer as a number in µM, unit excluded.

Form field: reported IC50 of CC(C)C1=CC2=CC[C@@H]3[C@](C)(CCC[C@@]3(C)C(=O)O)[C@H]2CC1 [AA, abietic acid]
10.6
